Measured T/C values are reported for all entries that follow.
Test system: P388 leukemia ip, CD2F1 mice, survival T/C
assay-overview: NCI In Vivo Anticancer Drug Screen. Data for tumor model P388 Leukemia (intraperitoneal) in CD2F1 (CDF1) mice
study-conditions: endpoint: median survival time; dose: 240.0 mg/kg/injection; schedule: Q01DX005 (ip); vehicle: saline; higher = longer survival
Inconclusive results and toxic doses are left out.

Consider the worked cases shown below.
> print(dat)
                                   compound  experimental.value
1  CCOc1ccc(/C=N/NC(=O)c2ccc(O)c(OC)c2)cc1OC     95 % of control
2                    O=C(O)c1ncnn1-c1ccccc1     99 % of control
3  COC(=O)C1=NC(=S)N=C(C(=O)OC)C1(C)C(=O)c1ccccc1    118 % of control
4  CCC(=O)C12CCCC1=NC(=N)N=C2C1=NC(=N)N=C2CCCC21C(=O)CC (stereo not given)     88 % of control

# input for lookup
Record `COc1cc(/C=C2/Cc3ccccc3C2=O)ccc1O` . Reported T/C: 96 % of control

---

Catalogue of compounds with associated T/C
Tested on: P388 leukemia ip, CD2F1 mice, survival T/C
assay-overview: NCI In Vivo Anticancer Drug Screen. Data for tumor model P388 Leukemia (intraperitoneal) in CD2F1 (CDF1) mice
study-conditions: endpoint: median survival time; dose: 200.0 mg/kg/injection; schedule: Q01DX005 (ip); vehicle: saline with Tween-80; higher = longer survival
Toxic doses and inconclusive results are not listed.

> print(dat)
                                    compound  measurement.type  experimental.value
 1  Cc1cc(C)n(-c2ccc(S(=O)(=O)N3CCC(=O)N(Cc4ccccc4)C3=S)cc2)n1               T/C     93 % of control
 2  CCOC(=O)c1sc2nc(CN3CCOCC3)[nH]c(=O)c2c1C               T/C     98 % of control
 3                  O=C(NCN1CCOCC1)Nc1ccccc1               T/C    112 % of control
 4  Nc1nnc2nc(C(C(=O)c3ccc(Cl)cc3Cl)c3nc4nnc(N)n4[nH]c3=O)c(=O)[nH]n12               T/C    100 % of control
 5  Cc1ccc(C2(C(=O)C=[N+]=[N-])OC2(C)C)cc1 (stereo unspecified)               T/C    108 % of control
 6                      O=C(Nc1nncs1)c1cccs1               T/C    101 % of control
 7  [N-]=[N+]=CC(=O)C1OC12C1CC3CC(C1)CC2C3 (stereo unspecified)               T/C    113 % of control
 8  CC(/C=N/Nc1ccccc1)=N\N=c1/scc(-c2ccc(C)cc2)n1C1CCCCC1               T/C     89 % of control
 9  CCN(CC)CCOC(=O)C(C1CCCCC1)C1(O)CCCCCC1 (stereo unspecified)               T/C     95 % of control
10            Cc1ccc(S(=O)(=O)SSN2CCOCC2)cc1               T/C    100 % of control

// moving on: another record for T/C
// sample O=C1c2ccccc2C(=O)N1N1CC1c1ccccc1 (stereo unspecified) , its T/C was 97 % of control

---

Tested on: P388 leukemia ip, CD2F1 mice, survival T/C
assay-overview: NCI In Vivo Anticancer Drug Screen. Data for tumor model P388 Leukemia (intraperitoneal) in CD2F1 (CDF1) mice
study-conditions: endpoint: median survival time; dose: 100.0 mg/kg/injection; schedule: Q01DX001 (ip); vehicle: saline with Tween-80; higher = longer survival
Toxic doses and inconclusive results are not listed.
Entries annotated with measured T/C

Worked set:
> print(dat)
                                   compound  measurement.type  experimental.value
1    O=C(c1cccnc1)N(Cc1ccccc1)C(=O)c1cccnc1               T/C    100 % of control
2                  Cn1ncc2c(N)cc(=O)[nH]c21               T/C    101 % of control
3  COc1ccc(-c2c(C#N)c(N)nc(C)c2-c2ccccc2)cc1               T/C    100 % of control
4  Cn1cnc([N+](=O)[O-])c1N1CCN(c2ccccc2)CC1               T/C     97 % of control
5  C/C(=N\NC(=O)c1ccccc1)c1cccc(/C(C)=N/NC(=O)c2ccccc2)n1.CC(=O)[O-].CC(=O)[O-].[Zn+2]               T/C     95 % of control

Per the records, this compound ( CC(C(=O)NN)C(C)(C)C (stereo not drawn) ) has T/C equal to 96 % of control

response.value for `COc1cc(/C(C)=N/N=C(\C)c2ccc(O)c(OC)c2)ccc1O` (field: T/C) = 100 % of control

The reported T/C of the compound COC1CC(O)C2OC(c3ccccc3)OCC2O1 (stereo not drawn) was 101 % of control

Item: `c1cnc2c(c1)-n1cccc1C1(CCCCC1)NN2` | T/C: 108 % of control

---

Quick reference for T/C among some compounds
Test system: P388 leukemia ip, CD2F1 mice, survival T/C
assay-overview: NCI In Vivo Anticancer Drug Screen. Data for tumor model P388 Leukemia (intraperitoneal) in CD2F1 (CDF1) mice
study-conditions: endpoint: median survival time; dose: 240.0 mg/kg/injection; schedule: Q01DX005 (ip); vehicle: Klucel (hydroxypropylcellulose) (HPC); higher = longer survival
Toxic doses and inconclusive results are not listed.

// known answers, use as guide
> print(dat)
                                   compound  measurement.type  experimental.value
1  COc1ccc(C2SCC(=O)N2c2nncs2)cc1F (centres undefined)               T/C     92 % of control
2  CN1CCN(CN2C(=O)NC(c3ccccc3)(c3ccccc3)C2=O)CC1               T/C     98 % of control
3                Cc1ccc2c(c1)Pc1cc(C)ccc1S2               T/C    104 % of control
4   CCOC(=O)c1ccc(NC(=O)Nc2ccc(OC)cc2Cl)cc1               T/C     96 % of control
5                   Cc1csc2nc(-c3cccs3)nn12               T/C    105 % of control

Please fill in: T/C reported for Cc1cc2c(cc1C)NC1C(=O)C(c3ccc(Cl)c(Cl)c3)OC1=N2 (centres undefined) = 86 % of control

---

System: P388 leukemia ip, CD2F1 mice, survival T/C
assay-overview: NCI In Vivo Anticancer Drug Screen. Data for tumor model P388 Leukemia (intraperitoneal) in CD2F1 (CDF1) mice
study-conditions: endpoint: median survival time; dose: 50.0 mg/kg/injection; schedule: Q01DX009 (ip); vehicle: Klucel (hydroxypropylcellulose) (HPC); higher = longer survival
Toxic doses and inconclusive results are not listed.
measurement-type: T/C

> print(dat)
                                   molecule  measurement.type  experimental.value
1     C/C=C/C=C/C(=O)Nc1ncc([N+](=O)[O-])s1               T/C    103 % of control
2  O=C1c2ccccc2CCC12OC2c1ccncc1 (stereo not drawn)               T/C    110 % of control
3                 CC1(C)C(=O)N(Br)C(=O)N1Br               T/C     99 % of control

get_value(item= CSCC(C)C(N)C(=O)O (stereo not drawn) , readout=T/C) returns 109 % of control

So for `NC(=O)c1nccnc1Cl` , the logged T/C turned out to be 101 % of control

---

System: P388 leukemia ip, CD2F1 mice, survival T/C
assay-overview: NCI In Vivo Anticancer Drug Screen. Data for tumor model P388 Leukemia (intraperitoneal) in CD2F1 (CDF1) mice
study-conditions: endpoint: median survival time; dose: 15.0 mg/kg/injection; schedule: Q01DX005 (ip); vehicle: saline with Tween-80
Toxic doses and inconclusive results are not listed. How the source made its calls: active means survival T/C of 150% or more; inactive means T/C below 125% in these data.
Please reply with one of these outcomes: active, inactive

// outcome(item) with item = `Cc1csnn1`
inactive

Write down the call the test reported for this compound. Item: `Cc1cccc(C)c1NC1=C(Cl)C(=O)c2ccccc2C1=O`
inactive

Call for entry `COc1ccc(-c2csc(NC(=O)Nc3nc(-c4ccc(OC)cc4)cs3)n2)cc1` :
inactive

I would be grateful if you could indicate the recorded call for `C[C@]12CCC(=O)N[C@@H]1CC[C@@H]1[C@@H]2CC[C@]2(C)[C@@H](OC(=O)COc3ccc(N(CCCl)CCCl)cc3)CC[C@@H]12` .
active

What did the test return for `O=c1oc2ccccc2c(O)c1C(c1ccc2c(c1)OCO2)c1c(O)c2ccccc2oc1=O` ?
inactive

// param item: CC1C(C(=O)NCC(c2ccccc2)c2ccccc2)CC2CCCCN21 (configuration not stated) ; yields the recorded call
inactive

Recorded test outcome, item `Cc1ccc(NC(=O)C#N)cc1`
inactive
